Cited source for all entries: patent US20230120736A1

Listed here: items and their measured ka.
# System: cynomolgus monkey CD98 ECD
# Sequence (as listed by the source): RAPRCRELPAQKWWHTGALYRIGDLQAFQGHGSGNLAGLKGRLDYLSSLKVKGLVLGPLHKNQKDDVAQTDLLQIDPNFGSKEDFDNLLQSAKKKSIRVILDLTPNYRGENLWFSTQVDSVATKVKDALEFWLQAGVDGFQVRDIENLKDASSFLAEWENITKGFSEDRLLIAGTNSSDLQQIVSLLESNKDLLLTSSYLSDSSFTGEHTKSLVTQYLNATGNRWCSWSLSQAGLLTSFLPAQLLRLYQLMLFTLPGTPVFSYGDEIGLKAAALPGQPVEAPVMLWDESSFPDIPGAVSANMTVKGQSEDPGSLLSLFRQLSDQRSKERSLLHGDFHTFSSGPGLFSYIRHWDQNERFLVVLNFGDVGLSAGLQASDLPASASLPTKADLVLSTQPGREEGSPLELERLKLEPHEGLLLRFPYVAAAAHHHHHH
# testDescription: Biacore surface plasmon resonance binding kinetics (anti-Fc capture)
# measurementParameters: cyCD98 ECD
Expressed in M⁻¹ s⁻¹, but write only the number.

These solved cases illustrate the format of a correct answer.
[[record]]
molecule = "huAb15v5 (antibody, V domains shown) VH: EVQLVESGGGVVQPGRSLRLSCAASGFTFSDYTMAWVRQAPGKGLEWVATIIYTGRGTYYRDAVKGRFTISRDNSKSTLYLQMNSLRAEDTAVYYCARQSDDTYYYWGYFDYWGQGTMVTVSS VL: DIVMTQSPDSLAVSLGERATINCKSSQSLLFSGNQKNYLAWYQQKPGQSPKLLIYWASTRQSGVPDRFSGSGSGTDFTLTIRSLQAEDVAIYYCQQYYSSPYTFGQGTKLEIK"
propertyname = "ka"
testvalue = 17000

[[record]]
molecule = "huAb15v7 (antibody, V domains shown) VH: EVQLVESGGGVVQPGRSLRLSCAASGFTFSDYTMAWVRQAPGKGLEWVATIIYDARGTYYRDAVKGRFTISRDNSKSTLYLQMNSLRAEDTAVYYCARQSDDTYYYWGYFDYWGQGTMVTVSS VL: DIVMTQSPDSLAVSLGERATINCKSSQSLLFSGNQKNYLAWYQQKPGQSPKLLIYWASTRQSGVPDRFSGSGSGTDFTLTIRSLQAEDVAIYYCQQYYGSPYTFGQGTKLEIK"
propertyname = "ka"
testvalue = 14000


Query: Record request: ka value, item huAb105: "heavy chain variable sequence of huAb105 is provided in SEQ ID NO: 111"; "light chain variable sequence ... in SEQ ID NO: 112" (antibody, V domains shown) VH: EVQLVESGGGLVQPGGSLRLSCAASGFTFSDYTMAWVRQAPGKGLEWVATIIYSGRGTYYRDAVKGRFTISRDNAKNTLYLQMNSLRAEDTAVYYCARQSDHTYYYWGYFDYWGQGTMVTVSS VL: DIVMTQTPLSLPVTPGEPASINCKSSQSLLFSGNQKNYLAWYLQKPGQSPQLLIYWASTRQSGVPDRFSGSGSGTDFTLKISRVEAEDVGIYYCQQYYDVPYTFGQGTKLEIK
Response: 38000
